Assay: NCI Yeast Anticancer Drug Screen. Data for the rad50 strain (AID 155);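 note: 0% = growth of vehicle-only cultures of the same strain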
Conditions: S. cerevisiae rad50 strain growth inhibition; at 50.0 µM; hits give high values
Procedure: Growth inhibition of yeast strains with defined genetic alterations is measured as a screen for potential anti-cancer activity. Selected strains with alterations in DNA damage repair or cell cycle control were exposed to compounds and growth inhibition was measured relative to vehicle treated controls. The strain used in this assay is rad50
Compounds without any hit were thinned out: in the full panel of roughly 79,000, 15% have a hit.
Here, each record is paired with measured growth inhibition data.

molecule: Oc1ccc(CCNCc2cc3c(cc2Br)OCO3)cc1
growth inhibition / %: 18.7
--
molecule: CC1OC(O[C@H]2C[C@@H](O)[C@]3(CO)[C@H]4[C@H](O)C[C@]5(C)[C@@H](C6=CC(=O)OC6)CC[C@]5(O)[C@@H]4CC[C@]3(O)C2)C(O)C(O)C1O (stereo partly specified)
growth inhibition / %: -6.7
--
molecule: CC[CH2][Sn](=[O])[c]1ccccc1
growth inhibition / %: 61.6
--
molecule: CC(Br)([N+](=O)[O-])[N+](=O)[O-]
growth inhibition / %: 14.6
--
molecule: O=C(O)CC(=O)O.[Co+2].[NH-]CC(=O)O.[NH-]CC(=O)O
growth inhibition / %: 15.4
--
molecule: C=C1C(=O)O[C@@H]2C[C@@H](C)[C@@H]3C=CC(=O)[C@@]3(C)[C@@H](O)[C@H]12
growth inhibition / %: 9.25
--
molecule: CCC[CH2][Sn]1([CH2]CCC)[O]C(=O)c2cccnc2[S]1
growth inhibition / %: 78.4
--
molecule: O=c1c2ccccc2sc2c1c(N(CCCl)CCCl)cc1ccccc12
growth inhibition / %: 39.2
--
molecule: CCOS(=O)OCC
growth inhibition / %: 19
--
molecule: O=NN(CCF)C(=O)NCCO
growth inhibition / %: 1.9
--
molecule: C1=C/CCC2NC2C/C=C/CCC/1 (stereo unspecified)
growth inhibition / %: -6.8
--
molecule: CC[S+](C)c1ccc(-c2c3nc(c(-c4ccc([S+](C)CC)cc4)c4ccc([nH]4)c(-c4ccc([S+](C)CC)cc4)c4nc(c(-c5ccc([S+](C)CC)cc5)c5ccc2[nH]5)C=C4)C=C3)cc1 (stereo unspecified)
growth inhibition / %: 86.8
--
molecule: C1CC[N-]CC1.CC(=N\O)/C(C)=N/O.CC(=N\O)/C(C)=N/O.[CH2-]Cl.[Co+2]
growth inhibition / %: 4.6
--
molecule: CCOP(=O)(OCC)Oc1ccc([N+](=O)[O-])c(CC)c1
growth inhibition / %: -2.55
--
molecule: O=c1ccc(N=Cc2ccc(N(CCCl)CCCl)cc2)ccc1O
growth inhibition / %: 96.2
--
molecule: CC(C)N(N=O)C(C)C
growth inhibition / %: 13.7
--
molecule: CCCCCOP(=O)(OCCCCC)C(=O)Nc1ccc([N+](=O)[O-])cc1
growth inhibition / %: -12.9
--
molecule: CC1(C)N=C(N)N=C(N)N1c1cccc(CCC(=O)Nc2ccc[n+](Cc3ccc(S(=O)(=O)F)cc3)c2)c1
growth inhibition / %: -1.3
--
molecule: O=C(O)C(F)(F)C(F)(F)C(=O)O
growth inhibition / %: 0.35
--
molecule: O=C(N=[C-]c1ccc[oH+]1)c1cccnc1.O=C(N=[C-]c1ccc[oH+]1)c1cccnc1.[Ni+2]
growth inhibition / %: -24.7
--
molecule: CCCC[As](=O)(O)C(C)C
growth inhibition / %: 5
